assayed.system: T1, BMP-12 (UniProt Q7Z4P5 322-450, limits assumed)
T1 construct: also called BMP12/GDF7
T1 sequence (looked up): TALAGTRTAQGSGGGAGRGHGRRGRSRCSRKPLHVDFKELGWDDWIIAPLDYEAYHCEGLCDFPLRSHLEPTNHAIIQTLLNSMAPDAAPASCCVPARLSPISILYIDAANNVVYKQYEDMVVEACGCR
assay.overview: peptide resin, filter plate; load 11: 50 mM Tris, 0.25 M NaCl, 30% MPD, pH 8.0
No end group written: not given here.
observed.property: Flow-through K

[[record]]
binder = "Ac-LYVSDVGWNDWIVK (not fully specified (residue 3); printed as Ac-LYV**SDVGWNDWIVK; also: ** after V3 not explained) [BMP2 C-trunc_2 peptide 746]"
numeric_readout = 0


[I] Ac-SDVGWNDWIVAPPGYHAFYSHGEK [BMP2 N-trun 1S peptide 751]
[II] Ac-RDLGWQDWIIAPEGYAAFYSDGEK [BMP5 peptide 748]
Query block: Kindly identify the item with the lower Flow-through K figure among these two: I and II Bench note: the answer is the label of the chosen record.
Result block: I
